// provenance: paper PMC9482650

measured-on: NOS1, P29475
Sequence (P29475 9-101): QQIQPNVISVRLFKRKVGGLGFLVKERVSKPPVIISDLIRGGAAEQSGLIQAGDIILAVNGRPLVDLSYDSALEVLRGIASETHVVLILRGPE
experimental-details: holdup assay
Set-up: key: below the threshold = too weak to quantify, mostly under pKd 3.1 to 4
experimental-context: plain residues with an end cap or a label only (N-terminal biotin on a linker: ttds)
measured-attribute: pKd

NPDALPETLV [ARHGAP6, O43182]
3.92
PFRSRSPSEV [GPR6, P46095]
3.74
GRLLGLETNV [ARHGEF26, Q96DR7]
3.88
SGGKRKETLV [NET1, Q7Z628]
4.09
QRPYRRESEI [KCNJ12, Q14500]
3.53
PPRQRSETQV [HPV82-E6, Q9IR59]
3.88
KLVIKTETTV [RASSF6, Q6ZTQ3]
3.58
